B1: Transitional endoplasmic reticulum ATPase, residues 26 to 106; numbered along this chain, P55072 (parent)
chain: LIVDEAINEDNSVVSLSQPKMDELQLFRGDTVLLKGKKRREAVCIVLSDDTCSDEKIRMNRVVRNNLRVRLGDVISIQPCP

variants of: B1; test: abundance fitness (aPCA) (normalised: wild type 0, dead -1); higher = more abundant; growth selection in yeast, the domain comes from the species named; conditions: Homo sapiens
Catalogue of variants with associated abundance fitness
Enter the number alone.

>>> print(df.to_string())
   residue_change     assay_endpoint  experimental_result
0            Q18I  abundance fitness               -0.088
1             I7F  abundance fitness                0.009
2             V3S  abundance fitness               -0.773

abundance fitness recorded for this variant, `V63I` , is 0.029

Record `V14Q` , field abundance fitness: -1.02

Memo: `N66E` , reported abundance fitness: 0.042

`I45H` has a reported abundance fitness of -0.088

For record `D22M` the listed abundance fitness is -0.06

So for `I45R` , the logged abundance fitness turned out to be 0.054

The value of abundance fitness measured for the variant `D73M` turned out to be -0.391
